pKi values by entry
Molecular target: Recombinant human NK3 (hNK3) receptor (Homo sapiens)
Construct: expressed in transfected cells
Experiment: NK3 receptor binding, [3H]SR142801 displacement, membrane preparations
Settings: second value of the cell pKi NK1/NK3; hNK3 receptor, [3H]SR142801
In simple prose, pKi is minus the logarithm base ten of a concentration in moles per litre.

Consider the worked cases shown below.
COMPOUND	pKi
CN(C(=O)C(C)(C)c1cc(C(F)(F)F)cc(C(F)(F)F)c1)c1cnc(N[C@H]2CC[C@H](O)CC2)cc1-c1ccc(Cl)cc1Cl [Example 91]	8.25
Cc1ccccc1-c1cc(N2CCC[C@H]2CO)ncc1N(C)C(=O)C(C)(C)c1cc(Cl)cc(OC(F)F)c1 [Example 36]	9.15
Cc1cc(F)ccc1-c1cc(N2CCOC[C@H]2CO)ncc1N(C)C(=O)C(C)(C)c1cc(C(F)(F)F)cc(C(F)(F)F)c1 [Example 174]	8.59
Cc1ccccc1-c1cc(N2C[C@@H](O)[C@@H](O)C2)ncc1N(C)C(=O)C(C)(C)c1cc(C(F)(F)F)cc(C(F)(F)F)c1 [Example 184]	7.70
Cc1cc(F)ccc1-c1cc(N2C[C@H](O)C[C@H]2CO)ncc1N(C)C(=O)C(C)(C)c1cc(F)cc(F)c1 [Example 29]	8.45

Turning now to a further compound:
Input: Entry Cc1ccccc1-c1cc(N(C)CCO)ncc1N(C)C(=O)C(C)(C)c1cc(C(F)(F)F)cc(C(F)(F)F)c1 [Example 117] : reported pKi = ?
Output: 8.51

====

Biological target: human NK1 receptor (Homo sapiens)
Sequence (P25103 whole entry): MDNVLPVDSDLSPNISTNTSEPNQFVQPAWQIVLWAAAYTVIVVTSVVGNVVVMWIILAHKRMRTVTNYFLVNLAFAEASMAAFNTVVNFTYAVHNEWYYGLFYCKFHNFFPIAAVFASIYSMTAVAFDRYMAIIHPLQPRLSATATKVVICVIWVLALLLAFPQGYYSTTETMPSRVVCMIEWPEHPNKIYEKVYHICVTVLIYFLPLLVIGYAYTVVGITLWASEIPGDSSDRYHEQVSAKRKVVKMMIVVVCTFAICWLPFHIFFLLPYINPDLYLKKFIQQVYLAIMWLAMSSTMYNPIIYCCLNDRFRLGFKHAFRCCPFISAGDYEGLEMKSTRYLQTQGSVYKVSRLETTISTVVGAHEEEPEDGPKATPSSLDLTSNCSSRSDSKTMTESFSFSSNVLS
Assay: NK1 receptor binding, [3H]substance P displacement, CHO cell membranes
Conditions: first value of the cell pKi NK1/NK3; human NK1 receptor, [3H]substance P
READOUT_TYPE: pKi
In simple prose, pKi is minus the logarithm base ten of a concentration in moles per litre.

Consider the worked cases shown below.
COMPOUND	pKi
CN(C(=O)C(C)(C)c1cc(Cl)cc(OC(F)F)c1)c1cnc(N2C[C@H](O)C[C@H]2CO)cc1-c1ccccc1Cl	8.71
CC(=O)N[C@H]1CCN(c2cc(-c3ccccc3Br)c(N(C)C(=O)C(C)(C)c3cc(C(F)(F)F)cc(C(F)(F)F)c3)cn2)C1	9.10
Cc1ccccc1-c1cc(N2CCC[C@H]2CO)ncc1N(C)C(=O)C(C)(C)c1cc(Cl)cc(OC(F)F)c1	8.37
Cc1cc(F)ccc1-c1cc(N2CCC[C@H]2CO)ncc1N(C)C(=O)C(C)(C)c1cc(F)cc(C(F)(F)F)c1	8.88
CN(C(=O)C(C)(C)c1cc(C(F)(F)F)cc(C(F)(F)F)c1)c1cnc(N2CC[C@H](O)[C@H](O)C2)cc1-c1ccccc1Cl (racemic)	8.78
Cc1cc(C)cc(C(C)(C)C(=O)N(C)c2cnc(N3CCC[C@H]3CO)cc2-c2ccccc2C)c1	8.53

Input: Entry Cc1cc(F)ccc1-c1cc(N2CCC[C@H]2CO)ncc1N(C)C(=O)C(C)(C)c1cc(F)cc(F)c1 : reported pKi = ?
Output: 8.55

====

Target: Recombinant human NK3 (hNK3) receptor (Homo sapiens, UniProt P29371)
Construct: expressed in transfected cells
Sequence (P29371 whole entry): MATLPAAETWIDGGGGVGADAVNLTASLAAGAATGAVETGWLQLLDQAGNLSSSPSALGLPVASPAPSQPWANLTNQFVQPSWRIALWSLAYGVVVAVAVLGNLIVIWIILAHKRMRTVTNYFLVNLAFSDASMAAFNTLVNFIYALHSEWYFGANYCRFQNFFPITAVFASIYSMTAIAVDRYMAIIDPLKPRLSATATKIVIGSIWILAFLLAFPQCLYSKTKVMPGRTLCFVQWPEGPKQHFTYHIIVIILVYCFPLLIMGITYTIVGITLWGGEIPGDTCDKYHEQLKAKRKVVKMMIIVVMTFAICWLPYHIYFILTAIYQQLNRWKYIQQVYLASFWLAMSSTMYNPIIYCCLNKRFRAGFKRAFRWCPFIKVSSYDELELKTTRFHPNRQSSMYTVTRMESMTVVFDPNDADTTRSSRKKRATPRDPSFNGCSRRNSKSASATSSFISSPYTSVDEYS
Test: NK3 receptor binding, [3H]SR142801 displacement, membrane preparations
Conditions: second value of the cell pKi NK1/NK3; hNK3 receptor, [3H]SR142801
READOUT_TYPE: Ki (nM)
Number in nM, nothing else.

Consider the worked cases shown below.
COMPOUND	MEASURED_TARGET	Ki [nM]
CC(O)CNc1cc(-c2ccccc2Cl)c(N(C)C(=O)C(C)(C)c2cc(C(F)(F)F)cc(C(F)(F)F)c2)cn1 (racemic)	Recombinant human NK3 (hNK3) receptor (Homo sapiens, UniProt P29371)	5.75
CN(C(=O)C(C)(C)c1cc(C(F)(F)F)cc(C(F)(F)F)c1)c1cnc(NC[C@H](O)CO)cc1-c1ccccc1Cl	Recombinant human NK3 (hNK3) receptor (Homo sapiens, UniProt P29371)	13.8
Cc1cc(F)ccc1-c1cc(N(CCO)CCO)ncc1N(C)C(=O)C(C)(C)c1cc(C(F)(F)F)cc(C(F)(F)F)c1	Recombinant human NK3 (hNK3) receptor (Homo sapiens, UniProt P29371)	1.74
CN(C(=O)C(C)(C)c1cc(C(F)(F)F)cc(C(F)(F)F)c1)c1cnc(N2CC[C@@H](O)[C@@H](CO)C2)cc1-c1ccccc1Cl (racemic)	Recombinant human NK3 (hNK3) receptor (Homo sapiens, UniProt P29371)	17.4

Input: Entry CN(C(=O)C(C)(C)c1cc(C(F)(F)F)cc(C(F)(F)F)c1)c1cnc(N2C[C@H](O)[C@@H](O)C2)cc1-c1ccccc1Cl : reported Ki = ?
Output: 32.4

Input: Another compound: Cc1cc(F)ccc1-c1cc(N2CCNC(=O)CC2)ncc1N(C)C(=O)C(C)(C)c1cc(C(F)(F)F)cc(C(F)(F)F)c1
Output: 15.8

Input: Another compound: CN(C(=O)C(C)(C)c1cc(C(F)(F)F)cc(C(F)(F)F)c1)c1cnc(N2CC[C@@H](O)[C@H](O)C2)cc1-c1ccccc1Cl (racemic)
Output: 15.5

Input: Another compound: C[C@@H](O)[C@H](CO)Nc1cc(-c2ccccc2Cl)c(N(C)C(=O)C(C)(C)c2cc(C(F)(F)F)cc(C(F)(F)F)c2)cn1
Output: 11.7

Input: Another compound: Cc1ccccc1-c1cc(N2C[C@H](O)C[C@H]2CO)ncc1N(C)C(=O)C(C)(C)c1cc(Cl)cc(OC(F)F)c1
Output: 0.617

Input: Another compound: Cc1cc(F)ccc1-c1cc(N2CCC[C@@H]2CO)ncc1N(C)C(=O)C(C)(C)c1cc(C(F)(F)F)cc(C(F)(F)F)c1
Output: 7.41

Input: Another compound: CCCCN(CCO)c1cc(-c2ccccc2Cl)c(N(C)C(=O)C(C)(C)c2cc(C(F)(F)F)cc(C(F)(F)F)c2)cn1
Output: 27.5

Input: Another compound: Cc1ccccc1-c1cc(N2CC[C@H](O)[C@H](O)C2)ncc1N(C)C(=O)C(C)(C)c1cc(C(F)(F)F)cc(C(F)(F)F)c1 (racemic)
Output: 32.4

Input: Another compound: Cc1cc(F)ccc1-c1cc(N2CC[C@@H](O)[C@H]2CO)ncc1N(C)C(=O)C(C)(C)c1cc(C(F)(F)F)cc(C(F)(F)F)c1
Output: 1.58

Input: Another compound: Cc1cc(F)ccc1-c1cc(N2CCC[C@H]2CO)ncc1N(C)C(=O)C(C)(C)c1cc(Cl)cc(OC(F)F)c1
Output: 2.24

Input: Another compound: Cc1cc(F)ccc1-c1cc(N2CC[C@H](NS(C)(=O)=O)C2)ncc1N(C)C(=O)C(C)(C)c1cc(C(F)(F)F)cc(C(F)(F)F)c1
Output: 6.76

Input: Another compound: CC(=O)N[C@@H]1CCN(c2cc(-c3ccccc3Cl)c(N(C)C(=O)C(C)(C)c3cc(C(F)(F)F)cc(C(F)(F)F)c3)cn2)C1
Output: 15.5

Input: Another compound: CCCN(CCO)c1cc(-c2ccccc2C)c(N(C)C(=O)C(C)(C)c2cc(C(F)(F)F)cc(C(F)(F)F)c2)cn1
Output: 2.29

Input: Another compound: CN(C(=O)C(C)(C)c1cc(C(F)(F)F)cc(C(F)(F)F)c1)c1cnc(N2C[C@H](O)C[C@H]2CO)cc1-c1ccc(Cl)cc1
Output: 10.5

====

Target: human NK1 receptor (Homo sapiens)
Assay: NK1 receptor binding, [3H]substance P displacement, CHO cell membranes
Conditions: first value of the cell NK1/NK3; read-out: pKi NK1 (converted)
Ki values by entry
Number in nM, nothing else.

Consider the worked cases shown below.
CN(C(=O)C(C)(C)c1cc(C(F)(F)F)cc(C(F)(F)F)c1)c1cnc(N2CC[C@H](O)[C@H]2CO)cc1-c1ccccc1 1.45
Cc1ncccc1-c1cc(N2C[C@@H](O)C[C@H]2CO)ncc1N(C)C(=O)C(C)(C)c1cc(C(F)(F)F)cc(C(F)(F)F)c1 0.955
CN(C(=O)C(C)(C)c1cc(C(F)(F)F)cc(C(F)(F)F)c1)c1cnc(N2CCC[C@H]2CO)cc1-c1ccc(Cl)cc1 6.31
Cc1ccc(F)cc1-c1cc(N2C[C@H](O)C[C@H]2CO)ncc1N(C)C(=O)C(C)(C)c1cc(C(F)(F)F)cc(C(F)(F)F)c1 1.1
CN(C(=O)C(C)(C)c1cc(C(F)(F)F)cc(C(F)(F)F)c1)c1cnc(N2CC[C@H](O)[C@H]2CO)cc1-c1cccc(Cl)c1 1.86

Input: Entry Cc1cc(F)ccc1-c1cc(N2C[C@@H](O)C[C@@H]2CO)ncc1N(C)C(=O)C(C)(C)c1cc(C(F)(F)F)cc(C(F)(F)F)c1 : reported Ki = ?
Output: 1.66

Input: Another molecule: Cc1ccc(-c2cc(N3C[C@H](O)C[C@H]3CO)ncc2N(C)C(=O)C(C)(C)c2cc(C(F)(F)F)cc(C(F)(F)F)c2)cc1F
Output: 2.29

Input: Another molecule: Cc1ccc(F)cc1-c1cc(N2CC[C@H](O)[C@H]2CO)ncc1N(C)C(=O)C(C)(C)c1cc(C(F)(F)F)cc(C(F)(F)F)c1
Output: 1.45

Input: Another molecule: CN(C(=O)C(C)(C)c1cc(C(F)(F)F)cc(C(F)(F)F)c1)c1cnc(N2C[C@@H](O)C[C@H]2CO)cc1-c1ccccc1F
Output: 1.32

Input: Another molecule: Cc1ncccc1-c1cc(N(CCO)CCO)ncc1N(C)C(=O)C(C)(C)c1cc(C(F)(F)F)cc(C(F)(F)F)c1
Output: 3.31

Input: Another molecule: Cc1ccccc1-c1cc(N2C[C@@H](O)C[C@H]2CO)ncc1N(C)C(=O)C(C)(C)c1cc(C(F)(F)F)cc(C(F)(F)F)c1
Output: 1.45

Input: Another molecule: CN(C(=O)C(C)(C)c1cc(C(F)(F)F)cc(C(F)(F)F)c1)c1cnc(N2C[C@H](O)C[C@H]2CO)cc1-c1cccc(F)c1
Output: 1.38

Input: Another molecule: Cc1ccccc1-c1cc(N2CC[C@H](O)[C@H]2CO)ncc1N(C)C(=O)C(C)(C)c1cc(C(F)(F)F)cc(C(F)(F)F)c1
Output: 1.29
